Each recorded value in this set is attributed to patent US20230192890A1.

- Test System: T1, Ala mutant SEQ ID NO: 28 (human)
- T1 sequence (peptide): EANMDDQWMQDEMEIGY
- Method Description: ELISA, peptide on plate (10 ug/mL)
Readout Kind: absorbance 490 nm/630 nm (OD)
Lab book: enter the figure in OD, no units written.

Return reported absorbance 490 nm/630 nm; argument: H7 (antibody, IgG1, V domains shown) VH: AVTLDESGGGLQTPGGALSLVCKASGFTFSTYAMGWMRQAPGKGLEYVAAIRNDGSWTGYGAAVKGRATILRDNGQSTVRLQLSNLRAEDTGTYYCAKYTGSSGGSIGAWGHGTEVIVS VL: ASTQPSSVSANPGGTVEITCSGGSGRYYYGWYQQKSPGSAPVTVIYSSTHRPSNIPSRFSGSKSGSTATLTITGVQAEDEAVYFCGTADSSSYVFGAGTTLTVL
1.95
